Target: HIV-1 Env of strain Du172.17 (HIV-1)
measuredParameter: In vitro neutralization IC50 (µg/mL)
Give the value in µg/mL but do not write µg/mL after it.

Please fill in: In vitro neutralization IC50 reported for 12A12 IgG (wild type) (antibody, V domains shown) VH: SQHLVQSGTQVKKPGASVRISCQASGYSFTDYVLHWWRQAPGQGLEWMGWIKPVYGARNYARRFQGRINFDRDIYREIAFMDLSGLRSDDTALYFCARDGSGDDTSWHLDPWGQGTLVIVSA VL: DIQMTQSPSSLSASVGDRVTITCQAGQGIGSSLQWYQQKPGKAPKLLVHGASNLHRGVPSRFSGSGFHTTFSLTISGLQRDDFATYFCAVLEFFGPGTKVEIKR = 0.2

In vitro neutralization IC50 in this record for 3BNC55 IgG (wild type) (antibody, V domains shown) VH: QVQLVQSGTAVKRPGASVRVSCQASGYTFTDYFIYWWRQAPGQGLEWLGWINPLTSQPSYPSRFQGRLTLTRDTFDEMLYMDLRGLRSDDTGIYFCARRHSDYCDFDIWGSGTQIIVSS VL: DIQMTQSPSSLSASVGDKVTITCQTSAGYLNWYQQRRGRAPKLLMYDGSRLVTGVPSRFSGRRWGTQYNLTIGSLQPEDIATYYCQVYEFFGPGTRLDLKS : 2

// In vitro neutralization IC50 lookup, binder = 3BNC60 IgG (wild type) (antibody) heavy: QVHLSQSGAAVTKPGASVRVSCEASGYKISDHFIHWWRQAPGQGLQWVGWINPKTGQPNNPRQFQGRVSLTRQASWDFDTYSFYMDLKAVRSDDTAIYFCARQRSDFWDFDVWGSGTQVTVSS light: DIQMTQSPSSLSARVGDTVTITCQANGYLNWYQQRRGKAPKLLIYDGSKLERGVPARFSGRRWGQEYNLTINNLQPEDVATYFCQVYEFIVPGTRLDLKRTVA , result: 0.05

Continuing:
Measured In vitro neutralization IC50, 3BNC117 IgG (wild type) (antibody) heavy: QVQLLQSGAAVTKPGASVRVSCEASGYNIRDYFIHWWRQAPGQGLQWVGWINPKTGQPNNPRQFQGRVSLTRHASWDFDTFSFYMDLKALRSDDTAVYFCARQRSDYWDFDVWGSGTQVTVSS light: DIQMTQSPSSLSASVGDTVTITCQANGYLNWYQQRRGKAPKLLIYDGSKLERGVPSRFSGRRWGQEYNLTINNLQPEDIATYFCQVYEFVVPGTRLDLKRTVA : 0.04

Entry source: patent US20200165325A1
